Measured values drawn from patent US20030022821A1 for this set.

system: Staphylococcus aureus ATCC 25923; format: cell-based; conditions: ATCC 25923
Peptide text beside a SMILES is read from it. * marks the point of attachment. Acm = CC(=O)NC*
METRIC_NAME: MIC S. aureus

CSCC[C@H](NC(=O)[C@H](CCCNC(=N)N)NC(=O)[C@H](Cc1c[nH]c2ccccc12)NC(=O)[C@H](CCC(N)=O)NC(=O)[C@H](Cc1c[nH]c2ccccc12)NC(=O)[C@H](CCCNC(=N)N)NC(=O)[C@H](CC(C)C)NC(=O)[C@H](CSCNC(C)=O)NC(=O)[C@H](CCCCN)NC(=O)[C@@H](N)CCC(=O)O)C(=O)N[C@@H](CCCNC(=N)N)C(=O)N[C@@H](CCCCN)C(=O)N[C@H](C(=O)NCC(=O)NCC(=O)O)C(C)C [LFM R9 W8] (H-EKC(Acm)LRWQWRMRKVGG-OH; N-terminus assumed) :: >1000 µg/mL

*Q* Read off the recorded MIC S. aureus for CSCC[C@H](NC(=O)[C@H](CCCNC(=N)N)NC(=O)[C@H](Cc1c[nH]c2ccccc12)NC(=O)[C@H](CCC(N)=O)NC(=O)[C@H](Cc1c[nH]c2ccccc12)NC(=O)[C@H](C)NC(=O)[C@H](CCCNC(=N)N)NC(=O)[C@H](CSCNC(C)=O)NC(=O)[C@H](CCCCN)NC(=O)[C@@H](N)Cc1ccccc1)C(=O)N[C@@H](CCCCN)C(=O)N[C@@H](CCCCN)C(=O)N[C@@H](CC(C)C)C(=O)NCC(=O)N[C@@H](C)C(=O)O [LFB A5] (H-FKC(Acm)RAWQWRMKKLGA-OH)
*A* >200 µg/mL

* * *

system: human red blood cells; experiment: Hemolytic assay; type: cell-based; conditions: red cells of human, 100
Ends that are not written are not given here.
A collection of substances and their measured % Hemolysis 100 μg/ml
Report the value in % with no unit label.

# count of solved cases: 3
RRWAWRMKK-OH [LFB 20-28 A4] :: 1.68
RRWQWRMKKLG-OH [LFB 20-30] :: 3.1
H-FKWRRWWWRMKKLWA-OH [LFB W3, 7, 14] :: 66.1

*Q* Consider the substance H-FKWRRWQWRMKKLWA-OH [LFB W3, 14] and give its recorded % Hemolysis 100 μg/ml.
*A* 5.1

*Q* # return recorded % Hemolysis 100 μg/ml for input RRWQWRMKKL-OH [LFB 20-29]
*A* 2.74

* * *

system: MRSA (methicillin resistant S. aureus); type: cell-based; conditions: methicillin resistant
Square brackets hold non-standard residues; d marks the D form. Peptide text beside a SMILES is read from it.
METRIC_NAME: MIC MRSA (mg/L)
Report the value in mg/L with no unit label.

*Q* Using known records, supply MIC MRSA for C[C@@H](NC(=O)[C@H](CCCNC(=N)N)NC(=O)[C@H](N)Cc1ccc(O)cc1)C(=O)N[C@@H](Cc1c[nH]c2ccccc12)C(=O)N[C@H](CCCNC(=N)N)C(=O)N[C@@H](Cc1c[nH]c2ccccc12)C(=O)N[C@H](C)C(=O)N[C@@H](Cc1c[nH]c2ccccc12)C(=O)N[C@H](CCCNC(=N)N)C(=O)N[C@@H](Cc1c[nH]c2ccccc12)C(=O)N[C@H](CCCNC(=N)N)C(N)=O (H-[dY]R[dA]W[dR]W[dA]W[dR]W[dR]-NH2; N-terminus assumed)
*A* 2.5

* * *

tested on: human red blood cells; assay: Hemolytic assay; format: cell-based; details: red cells of human, 10
Peptide text beside a SMILES is read from it. * marks the point of attachment. Fmoc = O=C(OCC1c2ccccc2-c2ccccc21)*; Acm = CC(=O)NC*
Listing of entries alongside the reported % Hemolysis 10 μg/ml.
Give the value, in units of %, as a plain number.

CSCC[C@H](NC(=O)[C@H](CCCNC(=N)N)NC(=O)[C@H](Cc1ccc2ccccc2c1)NC(=O)[C@H](CCC(N)=O)NC(=O)[C@H](Cc1c(S(=O)(=O)c2c(C)c(C)c3c(c2C)CCC(C)(C)O3)[nH]c2ccccc12)NC(=O)[C@H](CCCNC(=N)N)NC(=O)[C@H](CCCNC(=N)N)NC(=O)[C@H](CSCNC(C)=O)NC(=O)[C@H](CCCCN)NC(=O)[C@@H](N)Cc1ccccc1)C(=O)N[C@@H](CCCCN)C(=O)N[C@@H](CCCCN)C(=O)N[C@@H](CC(C)C)C(=O)NCC(=O)N[C@@H](C)C(=O)O :: 6.96
CSCC[C@H](NC(=O)[C@H](CCCNC(=N)N)NC(=O)[C@H](Cc1ccc2ccccc2c1)NC(=O)[C@H](CCC(N)=O)NC(=O)[C@H](Cc1ccc2ccccc2c1)NC(=O)[C@H](CCCNC(=N)N)NC(=O)[C@H](CCCNC(=N)N)NC(=O)[C@H](CSCNC(C)=O)NC(=O)[C@H](CCCCN)NC(=O)[C@@H](N)Cc1ccccc1)C(=O)N[C@@H](CCCCN)C(=O)N[C@@H](CCCCN)C(=O)N[C@@H](CC(C)C)C(=O)NCC(=O)N[C@@H](C)C(=O)O :: 2.8
CSCC[C@H](NC(=O)[C@H](CCCNC(=N)N)NC(=O)[C@H](C)NC(=O)[C@H](CCC(N)=O)NC(=O)[C@H](Cc1c[nH]c2ccccc12)NC(=O)[C@H](CCCNC(=N)N)NC(=O)[C@H](CCCNC(=N)N)NC(=O)[C@H](CSCNC(C)=O)NC(=O)[C@H](CCCCN)NC(=O)[C@H](Cc1ccccc1)NC(=O)OCC1c2ccccc2-c2ccccc21)C(=O)N[C@@H](CCCCN)C(=O)N[C@@H](CCCCN)C(=O)N[C@@H](CC(C)C)C(=O)NCC(=O)N[C@@H](C)C(=O)O [LFB A8 FMOC] (Fmoc-FKC(Acm)RRWQARMKKLGA-OH) :: 2.87
CSCC[C@H](NC(=O)[C@H](CCCNC(=N)N)NC(=O)[C@H](Cc1c[nH]c2ccccc12)NC(=O)[C@H](CCC(N)=O)NC(=O)[C@H](Cc1c[nH]c2ccccc12)NC(=O)[C@H](CCCNC(=N)N)NC(=O)[C@H](CCCNC(=N)N)NC(=O)[C@H](CSCNC(C)=O)NC(=O)[C@H](CCCCN)NC(=O)[C@@H](N)Cc1ccccc1)C(=O)N[C@@H](CCCCN)C(=O)N[C@@H](CCCCN)C(=O)N[C@@H](CC(C)C)C(=O)N[C@@H](Cc1c[nH]c2ccccc12)C(=O)N[C@@H](C)C(=O)O [LFB W14] (H-FKC(Acm)RRWQWRMKKLWA-OH) :: 3

--- query ---
*Q* Provide % Hemolysis 10 μg/ml value for the following compound: CSCC[C@@H](NC(=O)[C@@H](CCCNC(=N)N)NC(=O)[C@@H](Cc1c[nH]c2ccccc12)NC(=O)[C@@H](CCC(N)=O)NC(=O)[C@@H](Cc1c[nH]c2ccccc12)NC(=O)[C@@H](CCCNC(=N)N)NC(=O)[C@@H](CCCNC(=N)N)NC(=O)[C@@H](CSCNC(C)=O)NC(=O)[C@@H](CCCCN)NC(=O)[C@H](N)Cc1ccccc1)C(=O)N[C@H](CCCCN)C(=O)N[C@H](CCCCN)C(=O)N[C@H](CC(C)C)C(=O)NCC(=O)N[C@H](C)C(=O)O [Enantio LFB 17-31]
*A* 3.05

* * *

Examples of molecules with documented MIC E. coli follow.
tested on: Escherichia coli ATCC 25922; assay type: cell-based; settings: ATCC 25922
Peptide text beside a SMILES is read from it. * marks the point of attachment. Fmoc = O=C(OCC1c2ccccc2-c2ccccc21)*; Acm = CC(=O)NC*
Numeric only. Scale: µg/mL

CSCC[C@H](NC(=O)[C@H](CCCNC(=N)N)NC(=O)[C@H](C)NC(=O)[C@H](CCC(N)=O)NC(=O)[C@H](Cc1c[nH]c2ccccc12)NC(=O)[C@H](CCCNC(=N)N)NC(=O)[C@H](CCCNC(=N)N)NC(=O)[C@H](CSCNC(C)=O)NC(=O)[C@H](CCCCN)NC(=O)[C@H](Cc1ccccc1)NC(=O)OCC1c2ccccc2-c2ccccc21)C(=O)N[C@@H](CCCCN)C(=O)N[C@@H](CCCCN)C(=O)N[C@@H](CC(C)C)C(=O)NCC(=O)N[C@@H](C)C(=O)O [LFB A8 FMOC] (Fmoc-FKC(Acm)RRWQARMKKLGA-OH) :: 60
CSCC[C@H](NC(=O)[C@H](CCC(=O)O)NC(=O)[C@H](Cc1c[nH]c2ccccc12)NC(=O)[C@H](CCC(N)=O)NC(=O)[C@H](Cc1c[nH]c2ccccc12)NC(=O)[C@H](CCCNC(=N)N)NC(=O)[C@H](CC(C)C)NC(=O)[C@H](CSCNC(C)=O)NC(=O)[C@H](CCCCN)NC(=O)[C@@H](N)CCCNC(=N)N)C(=O)N[C@@H](CCCNC(=N)N)C(=O)N[C@@H](CCCCN)C(=O)N[C@@H](Cc1ccc(O)cc1)C(=O)NCC(=O)NCC(=O)O [LFM R1 W8 Y13] (H-RKC(Acm)LRWQWEMRKYGG-OH; N-terminus and C-terminus assumed) :: 50
CSCC[C@H](NC(=O)[C@H](CCCNC(=N)N)NC(=O)[C@H](Cc1c[nH]c2ccccc12)NC(=O)[C@H](CCC(N)=O)NC(=O)[C@H](Cc1c[nH]c2ccccc12)NC(=O)[C@H](CCCNC(=N)N)NC(=O)[C@H](CCCNC(=N)N)NC(=O)[C@H](CSCNC(C)=O)NC(=O)[C@H](C)NC(=O)[C@@H](N)Cc1ccccc1)C(=O)N[C@@H](CCCCN)C(=O)N[C@@H](CCCCN)C(=O)N[C@@H](CC(C)C)C(=O)NCC(=O)N[C@@H](C)C(=O)O [LFB A2] (H-FAC(Acm)RRWQWRMKKLGA-OH) :: 80
CSCC[C@H](NC(=O)[C@H](CCCNC(=N)N)NC(=O)[C@H](Cc1c[nH]c2ccccc12)NC(=O)[C@H](C)NC(=O)[C@H](Cc1c[nH]c2ccccc12)NC(=O)[C@H](CCCNC(=N)N)NC(=O)[C@H](CCCNC(=N)N)NC(=O)[C@H](CSCNC(C)=O)NC(=O)[C@H](CCCCN)NC(=O)[C@@H](N)Cc1ccccc1)C(=O)N[C@@H](CCCCN)C(=O)N[C@@H](CCCCN)C(=O)N[C@@H](CC(C)C)C(=O)NCC(=O)N[C@@H](C)C(=O)O [LFB A7] (H-FKC(Acm)RRWAWRMKKLGA-OH) :: 30

*Q* Consider the molecule CSCC[C@H](NC(=O)[C@H](CCCNC(=N)N)NC(=O)[C@H](Cc1ccc(-c2ccccc2)cc1)NC(=O)[C@H](CCC(N)=O)NC(=O)[C@H](Cc1c[nH]c2ccccc12)NC(=O)[C@H](CCCNC(=N)N)NC(=O)[C@H](CCCNC(=N)N)NC(=O)[C@H](CSCNC(C)=O)NC(=O)[C@H](CCCCN)NC(=O)[C@@H](N)Cc1ccccc1)C(=O)N[C@@H](CCCCN)C(=O)N[C@@H](CCCCN)C(=O)N[C@@H](CC(C)C)C(=O)NCC(=O)N[C@@H](C)C(=O)O and give its recorded MIC E. coli.
*A* 15
